# tested.system: 229E Mpro (Human coronavirus 229E)
# Sequence (P0C6X1 2966-3267): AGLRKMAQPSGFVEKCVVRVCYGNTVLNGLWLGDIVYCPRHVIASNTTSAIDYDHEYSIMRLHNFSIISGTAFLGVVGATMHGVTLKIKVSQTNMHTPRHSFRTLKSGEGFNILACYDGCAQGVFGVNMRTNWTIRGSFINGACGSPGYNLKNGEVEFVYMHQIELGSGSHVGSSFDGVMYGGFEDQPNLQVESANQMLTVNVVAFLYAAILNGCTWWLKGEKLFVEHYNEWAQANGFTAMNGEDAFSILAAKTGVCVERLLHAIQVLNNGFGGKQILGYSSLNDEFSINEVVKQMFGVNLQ
# experiment.description: 229E Mpro enzymatic assay (standard methods, SARS-CoV2 Mpro assay given as exemplary)
# Type: biochemical, human coronavirus (HCov) 229E
# reported.conditions: 229E Mpro EC50
This section presents compounds with their documented EC50 values.

compound	tested.system	EC50
C[C@H](NC(=O)C(c1cncc(F)c1)N(C(=O)[C@H]1C[C@@](C)(O)CN1C#N)c1ccc(-c2ccccc2)cc1)c1ccccc1 (single isomer, unassigned) [1345 Isomer 1]	229E Mpro (Human coronavirus 229E)	< 2 µM
Cc1c[nH]c2cc(N(C(=O)[C@H]3C[C@@H](O)CN3C#N)C(C(=O)NC3CCC(F)(F)CC3)c3cncc(F)c3)ccc12 (single isomer, unassigned) [Compound 747b Isomer 1]	229E Mpro (Human coronavirus 229E)	< 2 µM
CC(C)(C)OC(=O)N1CC(C(=O)N(c2ccc(C(C)(C)C)cc2)C(C(=O)NC2CCCCC2)c2cccnc2)C1 (centres unmarked)	229E Mpro (Human coronavirus 229E)	> 30 µM
CO[C@@H]1C[C@H](C(=O)N(c2ccc(S(F)(F)(F)(F)F)cc2)C(C(=O)NC(C)C2CCCCN2C(=O)OC(C)(C)C)c2cccnc2)N(C#N)C1 (single isomer, unassigned) [1303 Isomer 3.2]	229E Mpro (Human coronavirus 229E)	10 to 30 µM
N#CN1C[C@H](O)C[C@@H]1C(=O)N(c1ccc(C2CC2)cc1)C(C(=O)NC1CCCCC1)c1cccnc1 (single isomer, unassigned) [723 Isomer 2]	229E Mpro (Human coronavirus 229E)	2 to 10 µM
N#C[C@H]1C[C@H](C(=O)N(c2ccc(S(F)(F)(F)(F)F)cc2)C(C(=O)NC2CCC(F)(F)CC2)c2cncc(F)c2)N(C#N)C1 (single isomer, unassigned) [1100 Isomer 1]	229E Mpro (Human coronavirus 229E)	< 2 µM
N#CN1C[C@@H](OC(F)F)C[C@@H]1C(=O)N(c1ccc(S(F)(F)(F)(F)F)cc1)C(C(=O)NC1CCC(F)(F)CC1)c1cncc(F)c1 (single isomer, unassigned) [Compound 823a Isomer 1]	229E Mpro (Human coronavirus 229E)	< 2 µM
CC(C)(C)O[C@@H]1C[C@H](C(=O)N(c2ccc(C(C)(C)C)cc2)C(C(=O)NC2CCCCC2)c2cccnc2)N(C#N)C1 (single isomer, unassigned) [Compound 299 Isomer 1]	229E Mpro (Human coronavirus 229E)	10 to 30 µM
O=C(NC1CCC(F)(F)CC1)C(c1cncc(F)c1)N(C(=O)c1cnc[nH]1)c1ccc(C2CC2)cc1F (single isomer, unassigned) [1336 Isomer 2]	229E Mpro (Human coronavirus 229E)	10 to 30 µM
CC(C)(C)c1ccc(N(C(=O)c2cnc[nH]2)C(C(=O)NC2CCCCC2)c2cccnc2)c(C#N)n1 (centres unmarked)	229E Mpro (Human coronavirus 229E)	2 to 10 µM
N#CN1C[C@H](O)C[C@@H]1C(=O)N(c1ccc(S(F)(F)(F)(F)F)cc1)C(C(=O)NC1CCCCC1)c1cccnc1 (single isomer, unassigned) [Compound 791 Isomer 1]	229E Mpro (Human coronavirus 229E)	< 2 µM
